# ASSAY TARGET: ROS1-G2032R kinase domain (Homo sapiens, UniProt P08922, G2032R)
# Construct: TRKA-wt (1 nM, BPS Bio, 40280) kinase domains in buffer
# Sequence (P08922 1945-2222 G2032R limits assumed): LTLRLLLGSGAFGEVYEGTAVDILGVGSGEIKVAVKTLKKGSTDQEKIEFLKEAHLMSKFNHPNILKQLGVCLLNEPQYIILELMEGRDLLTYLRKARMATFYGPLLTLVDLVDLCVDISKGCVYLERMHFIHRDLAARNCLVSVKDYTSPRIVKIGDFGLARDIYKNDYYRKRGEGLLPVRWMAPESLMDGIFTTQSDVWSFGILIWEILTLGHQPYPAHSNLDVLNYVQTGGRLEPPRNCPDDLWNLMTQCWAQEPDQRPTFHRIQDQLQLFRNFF
# ASSAY: Biochemical kinase assay, ROS1-G2032R
# SETUP CONDITIONS: 2 mM ATP substrate solution, read-out: Ki^app ROS1-G2032R
# Method: First, 250 nL of compound dissolved in DMSO (100-fold of the desired concentration) was dispensed into a 384-well plate. […] The plate was sealed and read by SpectraMax Paradigm at λ=485 nm every 2 minutes for 120 minutes at 30° C. Initial rates of reaction (v) were calculated from the change in fluorescence intensity over time during the initial, linear portion of the reaction. […]
METRIC: Ki

Some solved entries appear below for comparison.
COMPOUND: CCn1ncc2c1-c1cnc(N)c(c1)O[C@H](C)c1cc(F)ccc1-c1nn(C)c(OC)c1C2
Ki: < 50 nM
//
COMPOUND: CCc1noc2c1-c1cnc(N)c(n1)O[C@H](C)c1cc(F)ccc1-c1nn(C)cc1C2
Ki: < 50 nM
//
COMPOUND: CCn1ncc2c1-c1cnc(N)c(c1)OCc1cc(F)ccc1-c1nccn1C2
Ki: 50 to 500 nM
//
COMPOUND: CCn1ncc2c1-c1cnc(N)c(c1)O[C@H](C)c1cc(F)ccc1-n1nc(C(F)(F)F)cc1C2
Ki: < 50 nM
//
COMPOUND: CCc1noc2c1-c1cnc(N)c(c1)O[C@H](C)c1cc(F)ccc1-c1nn(C)cc1C2
Ki: < 50 nM
//
COMPOUND: C[C@H]1Oc2cc(cnc2N)-c2c(C#N)cnn2Cc2cccnc2-c2ccc(F)cc21
Ki: < 50 nM
//
COMPOUND: Cc1cc2n(n1)-c1ccc(F)cc1[C@@H](C)Oc1cc(cnc1N)-c1c(cnn1CC1CC1)C2
Ki: < 50 nM
//
COMPOUND: CCn1nnc2c1-c1cnc(N)c(c1)O[C@H](C)c1cc(F)ccc1-c1ncc(F)cc1C2
Ki: < 50 nM

# per-item lookup of Ki; items listed below
1. CCn1nc(Cl)c2c1-c1cnc(N)c(c1)O[C@H](C)c1cc(F)ccc1-c1nn(C)cc1C2
2. C[C@H]1Oc2cc(cnc2N)-c2c(nnn2CC2CC2)Cc2cn(C)nc2-c2ccc(F)cc21

**Result**
< 50 nM
< 50 nM

I need Ki for every entry listed below, if you could help.
1. Cc1nn(CC2CC2)c2c1Cc1cn(C)nc1-c1ccc(F)cc1[C@@H](C)Oc1cc-2cnc1N
2. C[C@H]1Oc2cc(cnc2N)-c2c(nn(C)c2C#N)Cc2cccnc2-c2ccc(F)cc21
3. CCn1nc2c(c1C#N)-c1cnc(N)c(c1)O[C@H](C)c1cc(F)ccc1-n1nccc1C2
4. CCn1ncc2c1-c1cnc(N)c(c1)O[C@H](C)c1cc(F)ccc1-n1ncc(F)c1C2
5. Cc1nc2c(s1)Cc1c(c(C#N)nn1C)-c1cnc(N)c(c1)O[C@H](C)c1cc(F)ccc1-2
6. C[C@H]1Oc2cc(cnc2N)-c2c(cnn2CC2CC2)Cc2cc(C(F)F)nn2-c2ccc(F)cc21
7. CC1Oc2cc(cnc2N)-c2c(nn(C)c2C#N)Cc2cnccc2-c2ccc(F)cc21 (stereo not shown)
8. CCn1nc(C#N)c2c1-c1cnc(N)c(c1)O[C@H](C)c1cc(F)ccc1-c1nn(C)cc1C2

**Result**
1. < 50 nM
2. < 50 nM
3. 50 to 500 nM
4. < 50 nM
5. < 50 nM
6. < 50 nM
7. 50 to 500 nM
8. < 50 nM

Provide reported Ki for each item, in the same order as listed.
1. CCn1nc(Br)c2c1-c1cnc(N)c(c1)O[C@H](C)c1cc(F)ccc1-c1nn(C)cc1C2
2. Cc1nn(CC(F)F)c2c1Cc1cn(C)nc1-c1ccc(F)cc1[C@@H](C)Oc1cc-2cnc1N
3. CCn1cc2c(n1)-c1ccc(F)cc1[C@@H](C)Oc1cc(cnc1N)-c1c(cnn1CC1CC1)C2
4. C[C@H]1Oc2cc(cnc2N)-c2c(C#N)ncn2Cc2cn(C)nc2-c2ccc(F)cc21
5. C[C@H]1Oc2cc(cnc2N)-c2c(CC3CC3)cnn2Cc2cccnc2-c2ccc(F)cc21
6. COc1cc2n(n1)-c1ccc(F)cc1[C@@H](C)Oc1cc(cnc1N)-c1c(c(C)nn1CC1CC1)C2
7. CCn1ncc2c1-c1cnc(N)c(n1)OC(C)c1cc(F)ccc1-c1c(cnn1C)C2 (stereo not shown)

**Result**
1: 50 to 500 nM; 2: < 50 nM; 3: < 50 nM; 4: < 50 nM; 5: < 50 nM; 6: < 50 nM; 7: < 50 nM
